compounds and their reported pIC50
molecular target: S. mansoni TGR/Prx2 (Schistosoma mansoni, UniProt Q962Y6); assay: biochemical; assay type: biochemical; conditions: initial high throughput screen of the collection; 25 nM TGR, 50 nM Prx2; read-out: qHTS IC50
# pIC50 is unitless: minus log10 of the molar concentration; print number only

Known pIC50 results, listed for orientation:
O=C(c1cccs1)c1no[n+]([O-])c1C(=O)c1cccs1 = 5.04
Cc1nn(C)cc1C(=O)c1no[n+]([O-])c1C(=O)c1cn(C)nc1C = 4.62

Now take the following compound into account.
// COc1ccc(C(=O)c2no[n+]([O-])c2C(=O)c2ccc(OC)cc2)cc1 : pIC50 value = 5.00

* * *

Target: S. mansoni TGR/Prx2 (Schistosoma mansoni)
Sequence (Q962Y6 1-598): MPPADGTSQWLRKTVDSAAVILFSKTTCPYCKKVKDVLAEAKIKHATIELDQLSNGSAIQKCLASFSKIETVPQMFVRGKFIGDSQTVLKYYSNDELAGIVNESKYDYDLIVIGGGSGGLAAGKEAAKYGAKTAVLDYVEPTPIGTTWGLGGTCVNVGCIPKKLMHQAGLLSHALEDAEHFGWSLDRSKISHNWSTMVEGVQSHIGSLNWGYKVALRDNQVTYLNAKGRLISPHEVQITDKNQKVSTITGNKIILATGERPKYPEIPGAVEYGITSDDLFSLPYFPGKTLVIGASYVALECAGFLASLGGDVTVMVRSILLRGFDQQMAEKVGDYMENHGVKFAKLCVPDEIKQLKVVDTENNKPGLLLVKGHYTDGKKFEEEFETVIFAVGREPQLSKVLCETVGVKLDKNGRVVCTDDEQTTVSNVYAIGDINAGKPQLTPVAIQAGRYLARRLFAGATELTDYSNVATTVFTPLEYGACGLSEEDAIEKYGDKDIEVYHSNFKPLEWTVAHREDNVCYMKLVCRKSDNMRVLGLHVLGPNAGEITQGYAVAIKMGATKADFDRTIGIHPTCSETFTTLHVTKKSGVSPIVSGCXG
Assay: biochemical
Conditions: read-out: Confirmation IC50
readout.name: pIC50
# pIC50 is unitless: minus log10 of the molar concentration; print number only

// CCCCOc1cc(Br)c2noc3c2c1C(=O)c1ccccc1-3 : pIC50 value = 6.08

* * *

target: S. mansoni TGR/Prx2 (Schistosoma mansoni, UniProt Q962Y6); assay: biochemical
readout.name: IC50 (nM)
Write it as a number; the unit nM goes unstated.

Known IC50 results, listed for orientation:
O=P(Nc1ccccc1F)(c1ccccc1)c1nc2ccccc2s1 (stereo not drawn) [compound 2] = 23000
CC1=CC(=O)NP(=O)(Oc2ccc(Cl)cc2)N1 (stereo not drawn) [compound 13] = 420
CC1=CC(=O)NP(=O)(Oc2ccccc2)N1 (stereo not drawn) [compound 15] = 2000
COC(=O)C(C(=O)OC)c1cc(Br)c2noc3c2c1C(=O)c1ccccc1-3 [compound 11] = 120
O=C(c1ccco1)c1no[n+]([O-])c1C(=O)c1ccco1 [compound 5] = 1500

Lab note: compound CCOc1ccc(OP2(=O)NC(=O)C=C(C)N2)cc1 (stereo not drawn) [compound 16] tested on S. mansoni TGR/Prx2 (Schistosoma mansoni, UniProt Q962Y6); recorded IC50 was 180

Lab note: compound COc1ccc(C(=O)c2no[n+]([O-])c2C(=O)c2ccc(OC)cc2)cc1 [compound 8] tested on S. mansoni TGR/Prx2 (Schistosoma mansoni, UniProt Q962Y6); recorded IC50 was 4700

Lab note: compound O=C(c1cccs1)c1no[n+]([O-])c1C(=O)c1cccs1 [compound 7] tested on S. mansoni TGR/Prx2 (Schistosoma mansoni, UniProt Q962Y6); recorded IC50 was 1500
